Reference for the values: ChEMBL document CHEMBL5370558

Assay: Selectivity index, ratio of IC50 for cytotoxicity against human HDF cells to IC50 for anticancer activity against human PC-3 cells
Assay type: toxicity, cell-based
Conditions: HDF cells versus PC-3 cells, read-out: Ratio IC50
OBSERVED_PROPERTY: selectivity ratio
Returns: the value as a bare number; no unit string appended.

[[record]]
smiles_structure = "CO[C@H]1/C=C\\C=C(/C)C(=O)NC2=CC(=O)C(NCc3cn([C@]4(C#N)O[C@H](COC(C)=O)[C@H](OC(C)=O)[C@H](OC(C)=O)[C@H]4OC(C)=O)nn3)=C(C[C@@H](C)C[C@H](OC)[C@H](O)[C@@H](C)/C=C(\\C)[C@@H]1OC(N)=O)C2=O"
recorded_value = 1.64

[[record]]
smiles_structure = "C#CCNC1=C2C[C@@H](C)C[C@H](OC)[C@H](O)[C@@H](C)/C=C(\\C)[C@H](OC(N)=O)[C@@H](OC)/C=C\\C=C(/C)C(=O)NC(=CC1=O)C2=O"
recorded_value = 1.8

[[record]]
smiles_structure = "CO[C@H]1/C=C\\C=C(/C)C(=O)NC2=CC(=O)C(NCc3cn(Cc4cccc(C#N)c4)nn3)=C(C[C@@H](C)C[C@H](OC)[C@H](O)[C@@H](C)/C=C(\\C)[C@@H]1OC(N)=O)C2=O"
recorded_value = 1.65


What value of measured selectivity ratio is listed for `CO[C@H]1/C=C\C=C(/C)C(=O)NC2=CC(=O)C(NCc3cn(C4CCCCCC4)nn3)=C(C[C@@H](C)C[C@H](OC)[C@H](O)[C@@H](C)/C=C(\C)[C@@H]1OC(N)=O)C2=O` ?
1.62

Given the molecule `CO[C@H]1/C=C\C=C(/C)C(=O)NC2=CC(=O)C(NCc3cn(Cc4ccccc4)nn3)=C(C[C@@H](C)C[C@H](OC)[C@H](O)[C@@H](C)/C=C(\C)[C@@H]1OC(N)=O)C2=O` , what is its reported selectivity ratio?
2.46

Look at this molecule and give its reported selectivity ratio. `CO[C@H]1/C=C\C=C(/C)C(=O)NC2=CC(=O)C(NCc3cn(Cc4ccccc4I)nn3)=C(C[C@@H](C)C[C@H](OC)[C@H](O)[C@@H](C)/C=C(\C)[C@@H]1OC(N)=O)C2=O`
2.37

Looking for the measured selectivity ratio of `CO[C@H]1/C=C\C=C(/C)C(=O)NC2=CC(=O)C(NCCn3cc(-c4ccccn4)nn3)=C(C[C@@H](C)C[C@H](OC)[C@H](O)[C@@H](C)/C=C(\C)[C@@H]1OC(N)=O)C2=O` , can you help?
1.99

I would be grateful if you could share the reported selectivity ratio for `CO[C@H]1/C=C\C=C(/C)C(=O)NC2=CC(=O)C(NCCn3cc(CC(=O)O)nn3)=C(C[C@@H](C)C[C@H](OC)[C@H](O)[C@@H](C)/C=C(\C)[C@@H]1OC(N)=O)C2=O` .
1.83

# get_value(readout='selectivity ratio', item= `CO[C@H]1/C=C\C=C(/C)C(=O)NC2=CC(=O)C(NCc3cn(CC4CCOCC4)nn3)=C(C[C@@H](C)C[C@H](OC)[C@H](O)[C@@H](C)/C=C(\C)[C@@H]1OC(N)=O)C2=O` )
1.9

Please look up its selectivity ratio: `CO[C@H]1/C=C\C=C(/C)C(=O)NC2=CC(=O)C(NCc3cn([C@@H]4O[C@H](COC(C)=O)[C@H](OC(C)=O)[C@H](OC(C)=O)[C@H]4OC(C)=O)nn3)=C(C[C@@H](C)C[C@H](OC)[C@H](O)[C@@H](C)/C=C(\C)[C@@H]1OC(N)=O)C2=O`
1.07
